ENDPOINT: melting point

Query :: Quick one: melting point of C[C@H]1COc2c(N3CCN(C)CC3)c(F)cc3c(=O)c(C(=O)NCc4cn(CCCCCCC(=O)O)nn4)cn1c23 [Compound 7b] ?
Result :: 187 to 190 °C

Query :: Quick one: melting point of C[C@H]1COc2c(N3CCN(C)CC3)c(F)cc3c(=O)c(C(=O)OCc4cn(CCCCCC(=O)O)nn4)cn1c23 [Compound 6a] ?
Result :: 175 to 178 °C

Query :: Quick one: melting point of C[C@H]1COc2c(N3CCN(C)CC3)c(F)cc3c(=O)c(C(=O)OCc4cn(CCCCCCC(=O)O)nn4)cn1c23 [Compound 6b] ?
Result :: 183 to 185 °C

Query :: Quick one: melting point of C[C@H]1COc2c(N3CCN(C)CC3)c(F)cc3c(=O)c(C(=O)OCc4cn(CCCCCCCC(=O)O)nn4)cn1c23 [Compound 6c] ?
Result :: 196 to 199 °C

Query :: Quick one: melting point of C[C@H]1COc2c(N3CCN(C)CC3)c(F)cc3c(=O)c(C(=O)NCc4cn(CCCCCCCC(=O)O)nn4)cn1c23 [Compound 7c] ?
Result :: 203 to 205 °C

Query :: Quick one: melting point of C[C@H]1COc2c(N3CCN(C)CC3)c(F)cc3c(=O)c(C(=O)NCc4cn(CCCCCC(=O)O)nn4)cn1c23 [Compound 7a] ?
Result :: 179 to 182 °C

----------
# TARGET: human recombinant HDAC6 (Homo sapiens, UniProt Q9UBN7)
# Construct: purchased BPS Bioscience, CA
# Sequence (Q9UBN7 whole entry): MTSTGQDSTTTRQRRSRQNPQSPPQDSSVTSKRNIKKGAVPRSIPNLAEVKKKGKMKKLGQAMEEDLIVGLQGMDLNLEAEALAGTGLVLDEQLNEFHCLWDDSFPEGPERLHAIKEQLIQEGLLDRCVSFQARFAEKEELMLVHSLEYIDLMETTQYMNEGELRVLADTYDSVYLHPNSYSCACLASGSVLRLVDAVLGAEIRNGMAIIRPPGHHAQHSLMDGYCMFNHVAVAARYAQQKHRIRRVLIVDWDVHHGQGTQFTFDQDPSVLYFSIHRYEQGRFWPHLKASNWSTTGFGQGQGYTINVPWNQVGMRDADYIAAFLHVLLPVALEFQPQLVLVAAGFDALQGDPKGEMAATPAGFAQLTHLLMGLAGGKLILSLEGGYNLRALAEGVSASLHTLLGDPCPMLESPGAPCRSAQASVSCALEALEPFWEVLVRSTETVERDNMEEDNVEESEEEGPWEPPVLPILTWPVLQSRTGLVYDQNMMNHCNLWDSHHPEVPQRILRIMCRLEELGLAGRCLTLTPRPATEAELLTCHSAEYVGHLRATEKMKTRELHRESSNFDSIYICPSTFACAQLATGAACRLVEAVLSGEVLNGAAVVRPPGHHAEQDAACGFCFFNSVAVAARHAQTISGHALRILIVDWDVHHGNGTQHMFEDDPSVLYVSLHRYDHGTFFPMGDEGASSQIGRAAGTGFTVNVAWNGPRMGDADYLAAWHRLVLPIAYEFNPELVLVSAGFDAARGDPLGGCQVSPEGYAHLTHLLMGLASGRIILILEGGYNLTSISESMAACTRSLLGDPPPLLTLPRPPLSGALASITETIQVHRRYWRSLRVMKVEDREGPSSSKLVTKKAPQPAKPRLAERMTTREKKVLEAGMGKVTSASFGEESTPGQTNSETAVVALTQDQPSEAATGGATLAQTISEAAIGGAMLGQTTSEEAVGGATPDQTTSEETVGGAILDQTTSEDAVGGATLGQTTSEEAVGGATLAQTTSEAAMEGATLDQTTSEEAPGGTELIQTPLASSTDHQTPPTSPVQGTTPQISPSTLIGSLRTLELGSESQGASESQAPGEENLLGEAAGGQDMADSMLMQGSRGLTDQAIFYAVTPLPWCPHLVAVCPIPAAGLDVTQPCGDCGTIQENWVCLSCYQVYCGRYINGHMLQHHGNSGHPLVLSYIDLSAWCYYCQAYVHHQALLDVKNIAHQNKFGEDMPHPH
# ASSAY_PROCEDURE: HDAC activity assay (fluorogenic HDAC assay kit), HDAC6;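 further: underlying HDAC activity read as fluorescence, excitation 350 nm and emission 440 nm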
# Type: biochemical
# CONDITIONS: ratio of IC50 HDAC2 to IC50 HDAC6
Exam item: assign Yes to entries whose Selectivity index HDAC6/2 is below 4 and No to entries at or above 4. Note that a value of exactly 4 receives No.

Query :: Confirm or reject: Selectivity index HDAC6/2 of C[C@H]1COc2c(N3CCN(C)CC3)c(F)cc3c(=O)c(C(=O)NCc4cn(CCCCCCC(=O)O)nn4)cn1c23 lies strictly below 4
Result :: No

Query :: Confirm or reject: Selectivity index HDAC6/2 of C[C@H]1COc2c(N3CCN(C)CC3)c(F)cc3c(=O)c(C(=O)OCc4cn(CCCCCCCC(=O)NO)nn4)cn1c23 lies strictly below 4
Result :: Yes

Query :: Confirm or reject: Selectivity index HDAC6/2 of C[C@H]1COc2c(N3CCN(C)CC3)c(F)cc3c(=O)c(C(=O)OCc4cn(CCCCCCCC(=O)O)nn4)cn1c23 lies strictly below 4
Result :: Yes

Query :: Confirm or reject: Selectivity index HDAC6/2 of C[C@H]1COc2c(N3CCN(C)CC3)c(F)cc3c(=O)c(C(=O)OCc4cn(CCCCCCC(=O)O)nn4)cn1c23 lies strictly below 4
Result :: No

Query :: Confirm or reject: Selectivity index HDAC6/2 of C[C@H]1COc2c(N3CCN(C)CC3)c(F)cc3c(=O)c(C(=O)OCc4cn(CCCCCCC(=O)NO)nn4)cn1c23 lies strictly below 4
Result :: Yes

Query :: Confirm or reject: Selectivity index HDAC6/2 of C[C@H]1COc2c(N3CCN(C)CC3)c(F)cc3c(=O)c(C(=O)OCc4cn(CCCCCC(=O)O)nn4)cn1c23 lies strictly below 4
Result :: No

Query :: Confirm or reject: Selectivity index HDAC6/2 of C[C@H]1COc2c(N3CCN(C)CC3)c(F)cc3c(=O)c(C(=O)NCc4cn(CCCCCC(=O)O)nn4)cn1c23 lies strictly below 4
Result :: Yes
